Reference for the values: ChEMBL document CHEMBL1157539

Reported XC50 values for a set of compounds
# Tested on: Plasmodium falciparum
# testDescription: GSK_TCMDC: Inhibition of Plasmodium falciparum 3D7 in whole erythrocytes, using parasite LDH activity as an index of growth.
# Assay type: functional, organism-based
# studyConditions: Plasmodium falciparum, 3D7
Value expressed in nM; do not type the unit.

Example compounds with recorded XC50:
compound: C[C@@H]1C[C@@H]([C@H](O)CC2CC(=O)NC(=O)C2)C(=O)[C@@H](C)C1 [CYCLOHEXIMIDE]
systemName: Plasmodium falciparum
XC50 (nM): 527
--
compound: O=C(/C=C/c1ccc(Cl)c(Cl)c1)NCCCCCN1CCC(c2cn[nH]c2-c2ccccc2)CC1
systemName: Plasmodium falciparum
XC50 (nM): 1220
--
compound: CCC(CSC1CCCCC1)N(C)CCN(C)C(CC)CSC1CCCCC1 (stereo not given)
systemName: Plasmodium falciparum
XC50 (nM): 314
--
compound: CCCCCCNC(=O)C1Cc2c([nH]c3ccc(Br)cc23)C2(CCN(CCc3ccccc3)CC2)N1 (stereo not given)
systemName: Plasmodium falciparum
XC50 (nM): 788

-- ask Given COc1ccc(C(C(=O)NC2CCN(C[C@H](O)c3ccnc4ccc(OC)cc34)CC2)N2CCN(c3ccc(Cl)c(Cl)c3)CC2)cc1 (stereo not given in full) , state its recorded XC50.
-- reply 204
